# pIC50 annotations
# Tested on: A549
# TEST_NAME: Cytotoxicity against human A549 cells assessed as reduction in cell viability incubated for 48 hrs by WST8 dye based assay
# Assay type: functional
# MEASUREMENT_PARAMETERS: A549, 48 h
pIC50: −log10 of the molar value.

{"columns": ["MOLECULE", "pIC50"],
 "data": [
  ["CCc1c2c(nc3ccc(O)cc13)-c1cc3c(c(=O)n1C2)COC(=O)[C@]3(O)CC [7-ETHYL-10-HYDROXYCAMPTOTHECIN]", 5.18],
  ["CC1=CC(=O)[C@]2(O1)C(=O)N[C@@](O)(CC(C)C)[C@@H]2O (racemic)", "< 4.00"],
  ["CC(C)CC(=O)[C@@H]1O[C@@]12C(=O)C=C(Cc1ccccc1)NC2=O (racemic)", "< 4.00"]
]}

---

# Tested on: HeLa
# TEST_NAME: Cytotoxicity against human HeLa cells assessed as reduction in cell viability incubated for 48 hrs by WST8 dye based assay
# Assay type: functional

{"columns": ["MOLECULE", "IC50"],
 "data": [
  ["CC1=CC(=O)[C@]2(O1)C(=O)N[C@@](O)(CC(C)C)[C@@H]2O (racemic)", "> 100 µM"],
  ["CC(C)CC(=O)C1Oc2cc(Cc3ccccc3)[nH]c(=O)c2O1 (racemic)", "> 100 µM"],
  ["CC1=CC(=O)C2(OC2C(=O)CC(C)C)C(=O)N1 (racemic)", "40.5 µM"],
  ["Cc1cc2c(c(=O)[nH]1)OC(C(=O)CC(C)C)O2 (racemic)", "> 100 µM"],
  ["CC(C)C[C@@]12NC(=O)[C@]3(O)C(=O)C[C@@](C)(O[C@@H]31)O2 (racemic)", "> 100 µM"],
  ["CC(C)C[C@]1(O)NC(=O)[C@]2(OC(Cc3ccccc3)=CC2=O)[C@H]1O (racemic)", "> 100 µM"],
  ["CCc1c2c(nc3ccc(O)cc13)-c1cc3c(c(=O)n1C2)COC(=O)[C@]3(O)CC [7-ETHYL-10-HYDROXYCAMPTOTHECIN]", "13.1 µM"],
  ["CC(C)CC(=O)[C@@H]1O[C@@]12C(=O)C=C(Cc1ccccc1)NC2=O (racemic)", "> 100 µM"]
]}

---

# IC50 annotations
# System: A549
# TEST_NAME: Cytotoxicity against human A549 cells assessed as reduction in cell viability incubated for 48 hrs by WST8 dye based assay
# Format: functional
# MEASUREMENT_PARAMETERS: A549, 48 h
OBSERVATION_TYPE: IC50

{"columns": ["COMPOUND", "ENDPOINT_VALUE"],
 "data": [
  ["CC1=CC(=O)C2(OC2C(=O)CC(C)C)C(=O)N1 (racemic)", "32.1 µM"],
  ["CC(C)C[C@]1(O)NC(=O)[C@]2(OC(Cc3ccccc3)=CC2=O)[C@H]1O (racemic)", "> 100 µM"],
  ["CC(C)C[C@@]12NC(=O)[C@]3(O)C(=O)C[C@@](C)(O[C@@H]31)O2 (racemic)", "> 100 µM"],
  ["CC(C)CC(=O)C1Oc2cc(Cc3ccccc3)[nH]c(=O)c2O1 (racemic)", "> 100 µM"],
  ["Cc1cc2c(c(=O)[nH]1)OC(C(=O)CC(C)C)O2 (racemic)", "> 100 µM"]
]}

FYI, the data here is from ChEMBL document CHEMBL4390685.
